test system: HepG2-TP53BP1-CLTA; assay: phenotypically active (imaging signature differs from DMSO and reproducible) at any of 0.3-9 uM (binary (1 = active, 0 = inactive)); higher = active; conditions: treatment time: 24 h
Where a name gives a salt, the structure may show the parent alone.
Can you answer with just one of these options? active, inactive

Sample answers from the record:
{"columns": ["molecule", "classification"],
 "data": [
  ["c1ccc2c(c1)CCCC2C1=NCCN1 (centres undefined) [tetrahydrozoline]", "inactive"],
  ["Cc1ncc([N+](=O)[O-])n1CCOC(=O)NC(Nc1ncccn1)C(Cl)(Cl)Cl (centres undefined)", "inactive"],
  ["NC(=O)N1c2ccccc2C=Cc2ccccc21 [carbamazepine]", "inactive"],
  ["O=C(O)[C@]1(O)C[C@H](O)[C@@H](O)[C@@H](O)C1", "inactive"],
  ["Nc1ccc(O)c(C(=O)O)c1", "inactive"]
]}

Any idea what this test logged for CN1CCC(CN2c3ccccc3Sc3ccccc32)C1 (centres undefined) ? active

Any idea what this test logged for Nc1ncnc2c1nc(Br)n2[C@@H]1O[C@@H]2COP(=O)(O)O[C@H]2[C@H]1O [8-Bromo-cAMP, sodium salt] ? inactive

Any idea what this test logged for `O=C(O)c1cc(/N=N/c2ccc(S(=O)(=O)Nc3ccccn3)cc2)ccc1O` ? inactive

Any idea what this test logged for `O=C1N(c2ccccc2)c2ccccc2C1(Cc1ccncc1)Cc1ccncc1` ? inactive
